Data credit: PubChem BioAssay

- test.method.notes: basal HepG2 mitochondrial membrane potential changes, profiling panel, cell-based, JC-1 fluorescence, 24 h, 100 nL compound (AID 1167); also: test concentration not given here
- condition.summary: higher = more signal
assay.endpoint: z-score
Give bare numbers.

CO[C@@H]1COC(=O)[C@H](C)NC(=O)[C@@H](C)COC(=O)CCC[C@H]1C | -0.85
CC(C)C[C@@H]1NC(=O)[C@H]2C[C@@H](C(=O)O)[C@@H](c3ccc(O)cc3)N2C1=O | 1.27

Now take the following compound into account.
Looking up COC(=O)[C@H](C)NC(=O)CCC1CC(OC(=O)NCc2cccc3ccccc23)CC2(CCCC(COC(=O)NCC3CCCCC3)O2)O1 (stereo partly drawn) , I see its z-score listed as 1.38

* * *

- subject.of.test: Focal adhesion kinase 1 (Homo sapiens) (UniProt Q05397)
- Sequence (Q05397 whole entry, looked up): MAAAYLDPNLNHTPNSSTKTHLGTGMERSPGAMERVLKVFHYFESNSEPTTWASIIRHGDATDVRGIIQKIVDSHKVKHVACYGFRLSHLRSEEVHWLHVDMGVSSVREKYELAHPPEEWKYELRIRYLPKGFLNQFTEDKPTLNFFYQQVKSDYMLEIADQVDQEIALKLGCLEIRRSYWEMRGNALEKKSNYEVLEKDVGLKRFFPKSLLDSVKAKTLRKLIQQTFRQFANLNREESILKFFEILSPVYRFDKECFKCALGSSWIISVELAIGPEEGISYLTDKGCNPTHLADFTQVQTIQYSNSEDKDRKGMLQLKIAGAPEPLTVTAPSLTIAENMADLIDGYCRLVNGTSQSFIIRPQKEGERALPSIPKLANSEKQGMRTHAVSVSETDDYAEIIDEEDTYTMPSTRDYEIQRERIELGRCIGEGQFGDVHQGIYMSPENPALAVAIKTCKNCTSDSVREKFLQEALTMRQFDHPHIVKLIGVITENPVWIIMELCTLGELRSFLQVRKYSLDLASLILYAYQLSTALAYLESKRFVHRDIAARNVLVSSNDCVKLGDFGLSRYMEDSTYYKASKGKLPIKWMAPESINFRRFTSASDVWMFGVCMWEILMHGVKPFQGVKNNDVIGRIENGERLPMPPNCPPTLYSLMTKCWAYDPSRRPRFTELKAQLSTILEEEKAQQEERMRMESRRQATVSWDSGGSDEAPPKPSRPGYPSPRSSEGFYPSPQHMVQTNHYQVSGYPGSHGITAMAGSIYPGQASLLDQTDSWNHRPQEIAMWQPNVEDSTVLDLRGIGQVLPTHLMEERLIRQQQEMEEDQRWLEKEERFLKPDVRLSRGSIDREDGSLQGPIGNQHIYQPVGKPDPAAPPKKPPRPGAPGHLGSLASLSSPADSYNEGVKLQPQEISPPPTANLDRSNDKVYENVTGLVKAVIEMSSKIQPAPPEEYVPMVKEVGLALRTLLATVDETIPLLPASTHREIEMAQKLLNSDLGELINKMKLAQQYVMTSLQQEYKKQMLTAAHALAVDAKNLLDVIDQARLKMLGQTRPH
- test.method.notes: small-molecule microarray binders of FAK, primary screen, biochemical, 635/667 nm fluorescence, BSA, DTT (AID 1130);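 also: composite of spot emission at 667 nm and signal to noise over triplicate slides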
- condition.summary: PTK2 binding, 635 nm fluorescence, higher = more signal
Would you please tag the item true (1) when its composite z-score is 0.09 or above, and false (0) when it is below?

Illustrative cases are given below, each with its answer.
C=CCC(OC(C)=O)[C@@H]1[C@@H](N(Cc2cc3ccccc3o2)C(=O)Cc2ccc(F)cc2)c2cc(OCCCO)ccc2N1C(=O)Cc1ccc(OC)cc1 (stereo partly specified) | false (0)
CN(C)CCCNC(=O)[C@@H]1c2ccccc2C(=O)N(Cc2cc(F)cc(C(F)(F)F)c2)[C@H]1c1ccc(CO)cc1 | false (0)
C#CCCCON=C1C[C@@H](O)[C@@H](O)[C@@H]2[C@@H]3C(=O)N([C@@H](C)c4ccccc4)C(=O)[C@@H]3CC[C@H]12 | true (1)

Lookup: Does the reported composite z-score for "CC(C)[C@H](NC(=O)OC(C)(C)C)[C@@H](O)CC(=O)OC(C)(C)C" fall at or above the 0.09 mark?
Found: false (0)

Lookup: Does the reported composite z-score for "CC(CCN1CCc2nc(-c3ccccc3)c(-c3ccccc3)cc2C1)=NOC[C@@H](C)[C@H](OCc1ccccc1)C(C)C" fall at or above the 0.09 mark?
Found: true (1)

Lookup: Does the reported composite z-score for "Cc1cc(C)c(-c2cc([C@H](C)ON=C3[C@H]4CCn5c(=O)n(-c6ccccc6)c(=O)n5[C@H]4[C@H](O)[C@@H]4O[C@H]34)on2)c(C)c1" fall at or above the 0.09 mark?
Found: true (1)

Lookup: Does the reported composite z-score for CN1C(=O)C2C(C1=O)C1C=C(CCCO)C2C(c2ccc(CN3CCCC3)cc2)N1C (stereo unspecified) fall at or above the 0.09 mark?
Found: false (0)

* * *

- subject.of.test: Torsin-1A (Homo sapiens)
- test.method.notes: small-molecule binders of mutant TOR1A in lysate, primary screen, cell lysate, small-molecule microarray, COS7 lysate, 635/667 nm fluorescence (AID 1150);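 also: score pools 667 nm emission and signal to noise measuring lysate protein binding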
- condition.summary: COS7 hTOR1A mutant lysate, 635 nm fluorescence, higher = more signal
Would you please tag the item true (1) when its composite z-score is 0.3 or above, and false (0) when it is below?

Illustrative cases are given below, each with its answer.
C[C@H]1Cc2c(-c3ccccc3)nc3c(c2CO1)CN(CCOc1ccccc1)CC3 | true (1)
CC(C)(C)OC(=O)CC[C@]1(C(=O)NCc2ccccc2)N=C(c2ccc(OCCCO)cc2)O[C@H]1c1ccccc1 | true (1)
O=C(CS)NCCCCCNC(=O)[C@H]1C[C@H]2C(=O)N3CCC[C@H]3C(=O)N2[C@H]1c1cccc(OCCO)c1 | true (1)
CN1C(=O)C2C(C1=O)C1C=C(CCCO)C2C(c2ccc(CN3CCCC3)cc2)N1C (configuration not stated) | false (0)

Lookup: Does the reported composite z-score for "CCCC[C@H]1OB(O)C[C@H]2C1=C(C)C[C@H]1C(=O)N(C)C(=O)[C@H]12" fall at or above the 0.3 mark?
Found: false (0)

Lookup: Does the reported composite z-score for CCOC(=O)[C@H](Cc1ccccc1)NC(=O)CCC1CC(OC(=O)NCCc2ccc(F)cc2)CC2(CCCC(COC(=O)NCC(c3ccccc3)c3ccccc3)O2)O1 (some centres not stated) fall at or above the 0.3 mark?
Found: true (1)

Lookup: Does the reported composite z-score for COc1cccc([C@H]2Oc3ccc(OC)cc3C(=NOC(C)CN3CCCc4nc(C)c(C)cc43)[C@@H]2O)c1 (some centres not stated) fall at or above the 0.3 mark?
Found: false (0)

* * *

- test.method.notes: MM1S cell viability effects, profiling panel, calcein-AM fluorescence, 48 h, basal (AID 1165);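 also: viability of MM1S multiple myeloma cells under basal unstimulated conditions; test concentration not given here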
- condition.summary: higher = more signal
Please provide measured z-score for the entries that follow.
Numbers only.

Please review the entries below; each comes with its answer.
c1ccc(C2NCCc3c2[nH]c2ccccc32)cc1 (configuration not stated) | -0.402
CCc1cccc(NC(=O)O[C@H]2[C@H](OC(=O)Nc3ccc4c(c3)OCO4)[C@@H](OC(=O)Nc3ccc4c(c3)OCO4)[C@@H](OC)O[C@@H]2CO)c1 | -1.33
CCOC(=O)NN=C1C[C@@H](O)[C@@H](O)[C@@H]2[C@@H]3C(=O)N(C4CCCCC4)C(=O)[C@@H]3CC[C@H]12 | -0.796
CN(C)CCCNC(=O)[C@@H]1c2ccccc2C(=O)N(Cc2cc(F)cc(C(F)(F)F)c2)[C@H]1c1ccc(CO)cc1 | 0.137
COc1ccc(COC(=O)NN=C2C[C@@H](O)[C@@H](O)[C@@H]3[C@@H]4C(=O)N(c5ccc(F)cc5F)C(=O)[C@@H]4CC[C@@H]23)cc1 | -0.738

Respectfully, I request z-score for each entry included below.
1. COC(=O)C1=C(C)[C@@H](O)[C@@H](C)[C@H](c2c(OC)c(OC)c(C)c(OC)c2OC)O1
2. Cc1cc(C)c(-c2cc([C@H](C)ON=C3[C@H]4CCn5c(=O)n(-c6ccccc6)c(=O)n5[C@H]4[C@H](O)[C@@H]4O[C@H]34)on2)c(C)c1

Found:
1. 0.631
2. -2.95

* * *

Please provide measured z-score for the entries that follow.
- subject.of.test: NADPH oxidase 5 (Homo sapiens)
- test.method.notes: NOX5-dependent H2O2 signal modulators, primary screen, NOX inhibitor project, cell-based, HEK293-NOX5, Amplex Red fluorescence (AID 1161)
- condition.summary: HEK293-NOX5, ionomycin, 45 min, higher = more signal

O=C1[C@H]2[C@H]3[C@H](O)[C@H](O)CC(=NOCc4ccccc4)[C@@H]3CC[C@H]2C(=O)N1Cc1ccccc1 | 0.326
O=C1[C@H]2[C@H]3[C@H](O)[C@H](O)CC(=NOC[C@@H](O)COCc4ccco4)[C@H]3CC[C@H]2C(=O)N1C1CCCCC1 | -1.66
O=C1[C@H]2[C@H]3[C@H](O)[C@H](O)CC(=NO[C@@H]4O[C@H](CO)[C@@H](O)[C@H](O)[C@H]4O)[C@H]3CC[C@H]2C(=O)N1C1CCCCC1 | 0.329
CC=CC1=C(CO)[C@H](O)[C@H]2O[C@H]2[C@H]1O | -0.768
CO[C@@H]1COC(=O)CC=C[C@@H](C)[C@@H]2C=C[C@H](O)[C@@H](COC(=O)CCC[C@H]1C)O2 | 0.312

Respectfully, I request z-score for each entry included below.
1. Cc1ccc(F)cc1S(=O)(=O)N[C@@H]1CCN(Cc2ccc(CC(C)C)cc2)C1
2. C=CC[C@@H]1C=C[C@H](ON=C[C@@H](OC)[C@H](C)C=CCC(=O)OC)[C@@H](CO)O1

Found:
1. -4.02
2. -0.255

* * *

- Test system: wheat germ agglutinin (Triticum aestivum), Alexa647-labelled
- test.method.notes: wheat germ agglutinin binders on compound microarrays, profiling panel, artefact control for SMM control-protein annotation, biochemical, small-molecule microarray, 635/667 nm fluorescence (AID 1140);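 also: score merges 667 nm feature emission with signal to noise over triplicate slides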
- condition.summary: WGA-A647 binding, 635 nm fluorescence, higher = more signal
Please provide measured composite z-score for the entries that follow.
Numbers only.

Please review the entries below; each comes with its answer.
CCOC(=O)[C@H](Cc1ccccc1)NC(=O)CCC1CC(OC(=O)NCc2ccc3c(c2)OCO3)CC2(CCCC(COC(=O)NCC(c3ccccc3)c3ccccc3)O2)O1 (stereo partly drawn) | 0.477
O=C1[C@H]2[C@H]3[C@H](O)[C@H](O)CC(=NOC[C@@H](O)COCc4ccco4)[C@H]3CC[C@H]2C(=O)N1C1CCCCC1 | -1.22

Now take the following compound into account.
Looking up COC(=O)C1(C)C=C2C(=C(c3ccccc3)C(=O)C2C)CN1 (stereo not drawn) , I see its composite z-score listed as 0.264

* * *

- test.method.notes: cell viability in Huh7 cells, primary screen, cytotoxicity control for HCV replication inhibitor project, CellTiter-Glo luminescence, basal, 48 h (AID 1143);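 also: Huh7 hepatoma cells carrying a hepatitis C replication reporter with no stimulus; test concentration not given here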
- condition.summary: Huh7 HCV replicon, higher = more signal, called active from +8 up or from −8 down
Class field: derived from z-score; ranges class 0 (below -0.9), class 1 (-0.9 to below -0.08), class 2 (-0.08 or more)

CCOC(=O)NN=C1C[C@@H](O)[C@@H](O)[C@@H]2[C@@H]3C(=O)N(C4CCCCC4)C(=O)[C@@H]3CC[C@@H]12 | class 2
CC1(C)OCC(C(O)C2=CCCCC2=O)CO1 (centres undefined) | class 2
CC(C)CN1CCc2nc(-c3ccccc3)c3c(c2CC1)CO[C@@H](C)C3 | class 1
O=C1[C@H]2[C@H]3[C@H](O)[C@H](O)CC(=NOC[C@@H](O)COCc4ccco4)[C@H]3CC[C@H]2C(=O)N1Cc1ccc2c(c1)OCO2 | class 2
CCOC(=O)[C@H](CC(C)C)NC(=O)CCC1CC(OC(=O)NCc2cccc3ccccc23)CC2(CCCC(COC(=O)NCCc3ccccc3OC)O2)O1 (some centres undefined) | class 0
Cn1c(=O)n2n(c1=O)[C@H]1[C@H](O)[C@@H]3O[C@@H]3C(=NOC[C@@H](O)COCc3ccco3)[C@H]1CC2 | class 1
COc1ccc(-c2nc3c(c4c2C[C@H](C)OC4)CN(CCC(C)C)CC3)cc1 | class 1
CC(C)c1ccc(NN2C(C(O)c3ccc4c(c3)OCO4)C=CC3C(=O)N(c4ccccc4)C(=O)C32)cc1 (centres undefined) | class 1
CC=CC1=C(CO)[C@H](O)[C@H]2O[C@H]2[C@H]1O | class 2
COc1ccc(O[C@H]2C=C[C@@H](c3ccccc3)O[C@@H]2COC(=O)CCC(C)=NOCC[C@@H]2C=C[C@H](OC(C)=O)[C@@H](COC(C)=O)O2)cc1 | class 0

Lookup: Please indicate the class for "COCCCNC(=O)[C@@]1(CCS(=O)(=O)c2ccccc2)N=C(c2ccc(OCCCO)cc2)O[C@H]1c1ccccc1" based on its z-score.
Found: class 0

Lookup: Please indicate the class for "CC(C)NC(=O)[C@@]1(c2ccc([N+](=O)[O-])cc2)CC(=O)N(CC23CC4CC(CC(C4)C2)C3)[C@@H]1c1ccc(CO)cc1I" based on its z-score.
Found: class 0

Lookup: Please indicate the class for "C#C[C@@H](CC)O[Si](C#Cc1ccc(Oc2ccccc2)cc1)(C(C)C)C(C)C" based on its z-score.
Found: class 1
